B1: mRNA-splicing (parent)
chain: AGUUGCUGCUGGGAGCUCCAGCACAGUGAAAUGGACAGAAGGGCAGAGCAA

Variants of: B1
Experiment: exon inclusion enrichment index; higher = more inclusion; WT1 exon 5 minigene, HEK293
Rule: exon inclusion enrichment index of 1 or more gives Met; anything lower gives Not met.

{"var": "G2U U3G G5C C6U G8C C9U U10C", "answer_label": "Met"}
{"var": "G5A U7C G8A U10C A25C G26C", "answer_label": "Met"}
{"var": "G5C C6U G8C C9U U10C A29U A30G", "answer_label": "Met"}
{"var": "C6A U7C C9A U10C G33C G34U", "answer_label": "Met"}
{"var": "U3A U4C G5A U7C G8A U10C", "answer_label": "Met"}
{"var": "G5C C6A U7C G8A U10A G38C A39U", "answer_label": "Not met"}

Query: Is exon inclusion enrichment index for G5C C6U G8C C9U U10C A30C A31U at or above 1?
Reply: Met

Query: Kindly determine if exon inclusion enrichment index recorded for C6A U7C C9A U10C A45C G46C is above or exactly 1.
Reply: Met

Query: Does U3C U4A have a reported exon inclusion enrichment index of at least 1?
Reply: Not met

Query: Given G5C C6G U7C U10C A31G U32A , state whether its exon inclusion enrichment index is at least 1.
Reply: Met

Query: Please indicate if the recorded exon inclusion enrichment index for G5A C6G U7G C9A C18G C19A meets or exceeds 1.
Reply: Not met

Query: Is reported exon inclusion enrichment index greater than or equal to 1 here: G5C C6A U7C G8A U10A A14C G15U
Reply: Not met

Query: Check the entry G5A U7C G8A U10C A25U G26C : does exon inclusion enrichment index equal or exceed 1?
Reply: Met
